Test: Ratio of drug level in brain to plasma in rat at 10 mg/kg, iv after 30 mins
Assay type: ADME, organism-based
Set-up: dose 10 mg/kg, route intravenous
Rule for this label: Fulfilled means Kp at 0.5 h is less than 6; Not fulfilled means Kp at 0.5 h is at least 6.

Below, 4 compounds whose answers are already recorded.
Q: Is Kp at 0.5 h of "CN1CCN(c2cc(-c3ccc(C#N)cc3)nc(N)n2)CC1" strictly below 6?
A: Not fulfilled

Q: Is Kp at 0.5 h of "CN[C@@H]1CCN(c2nc(N)nc3c2CCCc2ccccc2-3)C1" strictly below 6?
A: Fulfilled

Q: Is Kp at 0.5 h of "CNC1CN(c2nc(N)nc3c2CCCc2ccccc2-3)C1" strictly below 6?
A: Fulfilled

Q: Is Kp at 0.5 h of "Nc1nc2c(c(N3CC[C@@H](N)C3)n1)CCCc1ccccc1-2" strictly below 6?
A: Fulfilled

Shifting focus to the compound that follows.
Q: Is Kp at 0.5 h of "Nc1nc2c(c(N3CCNCC3)n1)CCCc1ccccc1-2" strictly below 6?
A: Fulfilled
